Measured IC50, Tau40 assay (ThT) accompanies every entry in the list below.
- Study System: Tau40 P301L protein (human)
- Assay Overview: cell-based or functional assay
Square brackets hold non-standard residues; d marks the D form. Ends that are not written are not given here.
Parameter: IC50, Tau40 assay (ThT) (µM)

binder="[dF][dK][dI][dE][dI][dE][dY][dH] [fkieieyh]" observed_value=10.3
binder="[dE][dK][dI][dR][dI][dH][dY][dH] [ekirihyh]" observed_value=7.42
binder="[dW][dD][dL][dD][dV][dR][dW] [wdldvrw]" observed_value=14
binder="[dF][dE][dL][dH][dI][dK][dW][dH] [felhikwh]" observed_value=3.11
binder="[dY][dR][dL][dK][dV][dR][dW] [yrlkvrw]" observed_value=4.69
binder="[dL][dD][dL][dR][dF][dK][dL][dY] [ldlrfkly]" observed_value=3.43
binder="[dW][dR][dA][dR][dI][dH][dW] [wrarihw]" observed_value=3.33
binder="[dL][dA][dI][dR][dI][dH][dY] [lairihy]" observed_value=3.98
binder="[dW][dR][dL][dK][dV] [wrlkv]" observed_value=15.1
binder="[dW][dH][dV][dK][dF][dE][dL][dF] [whvkfelf]" observed_value=2.88
binder="[dR][dL][dK][dV][dW][dW] [rlkvww]" observed_value=7.01
binder="[dW][dD][dL][dK][dV][dR][dW] [wdlkvrw]" observed_value=2.76
binder="[dW][dR][dL][dK][dV][dE][dW] [wrlkvew]" observed_value=6.67
binder="[dL][dK][dI][dY][dI][dH][dY] [lkiyihy]" observed_value=2.93
